Ref: patent US9161894B2

Molecular target: Kit autophosphorylation in M07e cells (Homo sapiens, UniProt P10721)
Construct: expressing endogenously a high level of wild-type Kit; host or cells: M07e (human acute megakaryoblastic leukemia)
Sequence (P10721 26-976): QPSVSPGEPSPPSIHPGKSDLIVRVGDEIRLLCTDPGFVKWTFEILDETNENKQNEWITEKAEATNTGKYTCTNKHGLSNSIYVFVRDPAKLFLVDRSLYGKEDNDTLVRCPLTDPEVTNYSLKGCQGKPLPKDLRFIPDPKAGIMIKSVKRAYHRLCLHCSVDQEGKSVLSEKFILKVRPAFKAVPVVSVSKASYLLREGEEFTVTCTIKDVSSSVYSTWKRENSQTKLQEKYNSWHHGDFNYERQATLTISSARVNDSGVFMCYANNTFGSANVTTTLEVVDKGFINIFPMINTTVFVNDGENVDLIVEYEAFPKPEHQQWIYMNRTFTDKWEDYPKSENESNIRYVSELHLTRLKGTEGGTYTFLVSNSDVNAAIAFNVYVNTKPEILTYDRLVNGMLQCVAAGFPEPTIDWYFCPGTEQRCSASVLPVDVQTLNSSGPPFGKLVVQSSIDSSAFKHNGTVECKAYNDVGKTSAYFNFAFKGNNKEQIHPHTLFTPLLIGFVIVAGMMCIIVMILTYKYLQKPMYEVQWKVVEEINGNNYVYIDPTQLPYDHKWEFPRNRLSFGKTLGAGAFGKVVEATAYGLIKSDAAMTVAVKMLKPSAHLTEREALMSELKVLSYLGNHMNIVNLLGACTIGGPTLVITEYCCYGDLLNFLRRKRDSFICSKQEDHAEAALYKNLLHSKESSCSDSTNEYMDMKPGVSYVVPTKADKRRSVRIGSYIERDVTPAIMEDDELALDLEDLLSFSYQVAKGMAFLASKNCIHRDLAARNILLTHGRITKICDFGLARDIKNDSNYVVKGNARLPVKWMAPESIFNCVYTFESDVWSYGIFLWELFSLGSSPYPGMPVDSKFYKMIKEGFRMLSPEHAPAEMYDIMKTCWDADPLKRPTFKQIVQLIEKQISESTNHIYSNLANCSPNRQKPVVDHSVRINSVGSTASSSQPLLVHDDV
Sequence (P21583 26-190 partner limits assumed): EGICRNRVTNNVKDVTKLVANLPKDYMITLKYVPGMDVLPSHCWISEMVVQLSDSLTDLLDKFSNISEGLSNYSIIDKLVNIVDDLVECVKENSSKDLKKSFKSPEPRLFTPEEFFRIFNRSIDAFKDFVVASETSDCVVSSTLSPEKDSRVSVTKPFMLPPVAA
Test: Cellular Kit phosphorylation assay (ProQinase sandwich ELISA) in M07e cells
Type: cell-based
Conditions: same value in mass units
experimental-endpoint: pIC50
// field semantics: pIC50 = negative decimal log of concentration (mol/L)

For `COc1ccc(Nc2ccn(-c3ccccc3)n2)cc1` , what is its reported pIC50?
5.95

====

Target: Kit autophosphorylation in M07e cells (Homo sapiens, UniProt P10721)
Construct: expressing endogenously a high level of wild-type Kit; host or cells: M07e (human acute megakaryoblastic leukemia)
Assay: Cellular Kit phosphorylation assay (ProQinase sandwich ELISA) in M07e cells
Format: cell-based
Conditions: 90 min incubation, 100 ng/ml Kit ligand
experimental-endpoint: pIC50
The scale used: pIC50 is minus the common logarithm of the concentration in molar units.

Please tell me: pIC50 of `COc1ccc(Nc2ccn(-c3ccccc3)n2)cc1` , system Kit autophosphorylation in M07e cells (Homo sapiens, UniProt P10721)?
5.92
